system: SNB-75 CNS; assay: NCI-60 one-dose screen, 48 h (100 = growth as untreated, 0 = no growth, -100 = all killed); settings: 10 µM unless noted
This is part of a sample that, as a whole, favours compounds with a hit. Of some 83,000 tested, about 20% had one in any assay. The source made the active and inactive calls. The calls were made as follows: active = growth percent below 10; inactive = the rest.
growth listing for selected molecules.

Known growth results, listed for orientation:
Cc1ccc(-c2nnc(SCc3nc(N)nc(Nc4ccccc4F)n3)n2-c2ccccc2)cc1; 102% (inactive)
CC(=O)O[C@H]1CC[C@@]2(C)C(=CC[C@@H]3[C@@H]2CC[C@]2(C)C(Cl)=C(c4nc5ccc(Cl)cn5c4NC(C)(C)C)C[C@@H]32)C1; 76.4% (inactive)
C(=N\Nc1nnc2n1N=C(c1ccccc1)CS2)/c1ccc(OCc2ccccc2)cc1; 108% (inactive)
CNC1=C(Br)C(=O)c2c(C(=O)OC)c(C)nc(C)c2C1=O; 139% (inactive)
COc1ccc(-c2ccc(-c3ccc(C(=N)N)o3)o2)cc1; 43.6% (inactive)
C#Cc1ccc(NC(=O)Cc2ccc(/C=C/C(=O)c3nccn3C)cc2)cc1; 12.7% (inactive)
CCCCCCCCCCCCCC[n+]1ccc2c(C)c3c(c(C)c2c1)c1cc(O)ccc1n3CC; -59.9% (active)
O=C1C(c2c(O)[nH]c3ncccc23)=Nc2ccccc21; 68.1% (inactive)
Cc1ccc(S(=O)(=O)N(CCC(=O)O)c2ccccc2)cc1; 118% (inactive)
COc1ccc(CNc2ccc3nc(CCC4CCCCC4)[nH]c3c2)cc1; 69.4% (inactive)

Report growth for CCOC(=O)c1c(N)sc2cc(O)ccc12 please. 86.7% (inactive)

Consider next the molecule COc1ccc(Nc2nc(Nc3cc(C)[nH]n3)c3cc(OC)c(OC)cc3n2)cc1 in the same way. -94.5% [20 µM] (active)

Consider next the molecule CN1CCN(Cc2ccc(NC(=O)c3cncc(C#Cc4cnc(N)c5ncccc45)c3)cc2Cl)CC1 in the same way. 105% (inactive)

Consider next the molecule COc1ccc(-c2cc(-c3ccc(Cl)cc3)c(C#N)c(=O)n2CCCCC(=O)NO)cc1 in the same way. 76.7% (inactive)

Consider next the molecule C=C(C)[C@@H]1CC[C@]2(C(=O)NC(C)=O)CC[C@]3(C)[C@H](CC[C@@H]4[C@@]5(C)CCCNC(C)(C)[C@@H]5CC[C@]43C)[C@@H]12 in the same way. 52% (inactive)

Consider next the molecule CC1=C2[C@@H](CC1)[C@]1(C)O[C@@](C(C)C)(C[C@H]1OC(=O)CO)[C@H]2OC(=O)CCCc1ccccc1 in the same way. 90.8% (inactive)

Consider next the molecule Cc1ccc(C2(C)NC(=O)N(CC(=O)Nc3cccc(C)c3)C2=O)cc1 (stereo not given) in the same way. 77.1% (inactive)

Consider next the molecule O=C(O)c1cc2ccccc2s1 in the same way. 97.9% (inactive)

Consider next the molecule CN1CCN(Cc2ccc(NC(=O)c3cncc(C#Cc4cnc(N)c5ccc(C#N)cc45)c3)cc2C(F)(F)F)CC1 in the same way. -20% (active)

Consider next the molecule O=C1C(Nc2ccc(Br)cc2)=C(I)C(=O)c2ncccc21 in the same way. 26.4% (inactive)

---

system: HOP-92 NSCLC; assay: NCI-60 one-dose screen, 48 h; conditions: 10 µM unless noted
Compounds without any hit were thinned out: in the full panel of roughly 83,000, 20% have a hit. Calls of active or inactive are those of the source. How the source made its calls: active means growth percent below 10; inactive means the rest.
Please answer using one outcome listed in 1 for active, -1 for inactive

Cc1ccc(C2(C)NC(=O)N(CC(=O)Nc3cccc(C)c3)C2=O)cc1 (stereo not given); -1
CCN(CC)CCN1C(=O)c2c(c(C)c3c(oc4cc(OC)ccc43)c2C)C1=O; -1

Any idea what this test logged for COc1ccc(Nc2nc(Nc3cc(C)[nH]n3)c3cc(OC)c(OC)cc3n2)cc1 ? 1

Consider next the compound CNC(=O)c1cc(Oc2cccc3nc(NC(=O)Nc4ccc(F)cc4F)ccc23)ccn1 in the same way. -1

Consider next the compound CCOc1ccc(-c2cc(C3(S(=O)(=O)c4ccc(C)cc4)CC=CC3)on2)cc1 in the same way. -1
